meta.source: ChEMBL document CHEMBL4482306

A collection of compounds and their measured IC50
system: 4T1; assay: Antimigratory activity against mouse 4T1 cells assessed as inhibition of cell migration incubated for 6 hrs by crystal violet staining based Boyden-Chamber cell migration assay; assay type: functional; conditions: 4T1, 6 h

Entry Smiles: Cc1ccc(S(=O)(=O)Nc2cc(Sc3nc[nH]n3)c(O)c3ccccc23)c(C)c1
Target Of Assay: 4T1
Result: > 30 µM
//
Entry Smiles: CCOc1ccc(S(=O)(=O)Nc2cc(Sc3nc[nH]n3)c(O)c3ccccc23)cc1
Target Of Assay: 4T1
Result: > 20 µM
//
Entry Smiles: c1ccc(Nc2nc(-c3ccccc3)[n+](-c3ccccc3)s2)cc1
Target Of Assay: 4T1
Result: > 50 µM

Write down measured IC50 (4T1) for this compound. O=C1C(Sc2nc[nH]n2)=C/C(=N/S(=O)(=O)c2ccccc2)c2ccccc21 > 30 µM
